Ratio CC50/EC50 by entry:
assay: Selectivity index, ratio of CC50 for HFF to EC50 for Human cytomegalovirus Towne infected in human foreskin fibroblasts

Example molecules with recorded Ratio CC50/EC50:
{"item-smiles": "C[C@@H]1O[C@@H](O[C@@H]2[C@@H](O)[C@@H](O)[C@H](O[C@H]3CC[C@@]4(C)[C@H](CC[C@@H]5[C@@H]4CC[C@]4(C)[C@@H](C6=CC(=O)OC6)CC[C@]54O)C3)O[C@H]2C)[C@H](O)[C@H](O)[C@H]1O", "Ratio CC50/EC50": 41}
{"item-smiles": "C[C@]12CC[C@H](O[C@@H]3O[C@@H](CO)[C@H](O)[C@@H](O)[C@H]3O)C[C@H]1CC[C@@H]1[C@@H]2CC[C@]2(C)[C@@H](C3=CC(=O)OC3)CC[C@]12O", "Ratio CC50/EC50": 127}
{"item-smiles": "C[C@@H]1O[C@@H](O[C@@H]2CC[C@H](O[C@H]3CC[C@@]4(C)[C@H](CC[C@@H]5[C@@H]4CC[C@]4(C)[C@@H](C6=CC(=O)OC6)CC[C@]54O)C3)O[C@H]2C)CC[C@H]1O", "Ratio CC50/EC50": 76}
{"item-smiles": "C[C@H]1O[C@H](O[C@H]2[C@H](O)[C@H](O)[C@@H](O[C@H]3CC[C@@]4(C)[C@H](CC[C@@H]5[C@@H]4CC[C@]4(C)[C@@H](C6=CC(=O)OC6)CC[C@]54O)C3)O[C@@H]2C)[C@@H](O)[C@@H](O)[C@@H]1O", "Ratio CC50/EC50": 32}
{"item-smiles": "C[C@H]1O[C@@H](O[C@H]2[C@@H](O)C[C@H](O[C@H]3[C@@H](O)C[C@H](O[C@H]4CC[C@@]5(C)[C@H](CC[C@@H]6[C@@H]5CC[C@]5(C)[C@@H](C7=CC(=O)OC7)CC[C@]65O)C4)O[C@@H]3C)O[C@@H]2C)C[C@H](O)[C@@H]1O", "Ratio CC50/EC50": 120}

What measured Ratio CC50/EC50 goes with C[C@H]1O[C@H](O[C@H]2CC[C@@]3(C)[C@H](CC[C@@H]4[C@@H]3CC[C@]3(C)[C@@H](C5=CC(=O)OC5)CC[C@]43O)C2)CC[C@@H]1O[C@@H]1CC[C@H](O)[C@@H](C)O1 ? 15

----------
CC50 at 72 h by entry:
experiment: Cytotoxicity against HFF assessed as inhibition of cell viability after 3 days by trypan blue exclusion assay; assay type: cell-based; settings: human, HFF cells
Units required after the number.

Example compounds with recorded CC50 at 72 h:
{"compound": "C[C@@H]1O[C@@H](O[C@@H]2[C@@H](O)[C@@H](O)[C@H](O[C@@H]3[C@@H](O)[C@@H](O)[C@H](O[C@H]4CC[C@@]5(C)[C@H](CC[C@@H]6[C@@H]5CC[C@]5(C)[C@@H](C7=CC(=O)OC7)CC[C@]65O)C4)O[C@H]3C)O[C@H]2C)[C@H](O)[C@H](O)[C@H]1O", "CC50 at 72 h": "11 µM"}
{"compound": "C[C@@H]1O[C@@H](O[C@@H]2CC[C@H](O[C@H]3CC[C@@]4(C)[C@H](CC[C@@H]5[C@@H]4CC[C@]4(C)[C@@H](C6=CC(=O)OC6)CC[C@]54O)C3)O[C@H]2C)CC[C@H]1O", "CC50 at 72 h": "7 µM"}
{"compound": "C[C@]12CC[C@H](O[C@@H]3O[C@@H](CO)[C@H](O)[C@@H](O)[C@H]3O)C[C@H]1CC[C@@H]1[C@@H]2CC[C@]2(C)[C@@H](C3=CC(=O)OC3)CC[C@]12O", "CC50 at 72 h": "1.9 µM"}
{"compound": "C[C@@H]1O[C@@H](O[C@@H]2[C@@H](O)[C@@H](O)[C@H](O[C@H]3CC[C@@]4(C)[C@H](CC[C@@H]5[C@@H]4CC[C@]4(C)[C@@H](C6=CC(=O)OC6)CC[C@]54O)C3)O[C@H]2C)[C@H](O)[C@H](O)[C@H]1O", "CC50 at 72 h": "6 µM"}
{"compound": "C[C@H]1O[C@H](O[C@H]2[C@H](O)[C@H](O)[C@@H](O[C@H]3CC[C@@]4(C)[C@H](CC[C@@H]5[C@@H]4CC[C@]4(C)[C@@H](C6=CC(=O)OC6)CC[C@]54O)C3)O[C@@H]2C)[C@@H](O)[C@@H](O)[C@@H]1O", "CC50 at 72 h": "10 µM"}
{"compound": "C[C@@H]1O[C@@H](O[C@H]2CC[C@@]3(C)[C@H](CC[C@@H]4[C@@H]3CC[C@]3(C)[C@@H](C5=CC(=O)OC5)CC[C@]43O)C2)CC[C@H]1O [RAMNODIGIN]", "CC50 at 72 h": "4 µM"}
{"compound": "C[C@@H]1O[C@@H](O[C@@H]2CC[C@H](O[C@@H]3CC[C@H](O[C@H]4CC[C@@]5(C)[C@H](CC[C@@H]6[C@@H]5CC[C@]5(C)[C@@H](C7=CC(=O)OC7)CC[C@]65O)C4)O[C@H]3C)O[C@H]2C)CC[C@H]1O", "CC50 at 72 h": "9 µM"}
{"compound": "C[C@H]1O[C@H](O[C@H]2CC[C@@]3(C)[C@H](CC[C@@H]4[C@@H]3CC[C@]3(C)[C@@H](C5=CC(=O)OC5)CC[C@]43O)C2)CC[C@@H]1O", "CC50 at 72 h": "4 µM"}
{"compound": "C[C@H]1O[C@H](O[C@H]2CC[C@@]3(C)[C@H](CC[C@@H]4[C@@H]3CC[C@]3(C)[C@@H](C5=CC(=O)OC5)CC[C@]43O)C2)CC[C@@H]1O[C@@H]1CC[C@H](O[C@@H]2CC[C@H](O)[C@@H](C)O2)[C@@H](C)O1", "CC50 at 72 h": "19 µM"}
{"compound": "C[C@H]1O[C@@H](O[C@H]2[C@@H](O)C[C@H](O[C@H]3[C@@H](O)C[C@H](O[C@H]4CC[C@@]5(C)[C@H](CC[C@@H]6[C@@H]5CC[C@]5(C)[C@@H](C7=CC(=O)OC7)CC[C@]65O)C4)O[C@@H]3C)O[C@@H]2C)C[C@H](O)[C@@H]1O [DIGITOXIN]", "CC50 at 72 h": "6 µM"}

What measured CC50 at 72 h goes with C[C@H]1O[C@H](O[C@H]2[C@H](O)[C@H](O)[C@@H](O[C@H]3[C@H](O)[C@H](O)[C@@H](O[C@H]4CC[C@@]5(C)[C@H](CC[C@@H]6[C@@H]5CC[C@]5(C)[C@@H](C7=CC(=O)OC7)CC[C@]65O)C4)O[C@@H]3C)O[C@@H]2C)[C@@H](O)[C@@H](O)[C@@H]1O ? 16 µM

Proceed to C[C@@H]1O[C@@H](O[C@H]2CC[C@@]3(C)[C@H](CC[C@@H]4[C@@H]3CC[C@]3(C)[C@@H](C5=CC(=O)OC5)CC[C@]43O)C2)[C@H](O)[C@H](O)[C@H]1O 2 µM

Proceed to C[C@H]1O[C@H](O[C@H]2CC[C@@]3(C)[C@H](CC[C@@H]4[C@@H]3CC[C@]3(C)[C@@H](C5=CC(=O)OC5)CC[C@]43O)C2)[C@@H](O)[C@@H](O)[C@@H]1O 3.7 µM

Proceed to C[C@H]1O[C@H](O[C@H]2CC[C@@]3(C)[C@H](CC[C@@H]4[C@@H]3CC[C@]3(C)[C@@H](C5=CC(=O)OC5)CC[C@]43O)C2)CC[C@@H]1O[C@@H]1CC[C@H](O)[C@@H](C)O1 1 µM

----------
tested on: Human betaherpesvirus 5; assay: Antiviral activity against Human cytomegalovirus Towne infected in HFF assessed as inhibition of viral replication by measuring pp28 expression at 72 hrs post-infection by luciferase assay; format: functional, organism-based; conditions: Human betaherpesvirus 5, Towne
quantity-kind: EC50 (nM)
Answer in nM, number only, no unit symbol.

{"compound": "C[C@@H]1O[C@@H](O[C@@H]2[C@@H](O)[C@@H](O)[C@H](O[C@@H]3[C@@H](O)[C@@H](O)[C@H](O[C@H]4CC[C@@]5(C)[C@H](CC[C@@H]6[C@@H]5CC[C@]5(C)[C@@H](C7=CC(=O)OC7)CC[C@]65O)C4)O[C@H]3C)O[C@H]2C)[C@H](O)[C@H](O)[C@H]1O", "study-system": "Human betaherpesvirus 5", "quantity-kind": "EC50", "data-value": 232}
{"compound": "C[C@H]1O[C@@H](O[C@H]2[C@@H](O)C[C@H](O[C@H]3[C@@H](O)C[C@H](O[C@H]4CC[C@@]5(C)[C@H](CC[C@@H]6[C@@H]5CC[C@]5(C)[C@@H](C7=CC(=O)OC7)CC[C@]65O)C4)O[C@@H]3C)O[C@@H]2C)C[C@H](O)[C@@H]1O [DIGITOXIN]", "study-system": "Human betaherpesvirus 5", "quantity-kind": "EC50", "data-value": 23.3}
{"compound": "C[C@]12CC[C@H](O[C@@H]3O[C@@H](CO)[C@H](O)[C@@H](O)[C@H]3O)C[C@H]1CC[C@@H]1[C@@H]2CC[C@]2(C)[C@@H](C3=CC(=O)OC3)CC[C@]12O", "study-system": "Human betaherpesvirus 5", "quantity-kind": "EC50", "data-value": 7.3}

Next item in the queue.
What measured EC50 goes with C[C@H]1O[C@H](O[C@H]2CC[C@@]3(C)[C@H](CC[C@@H]4[C@@H]3CC[C@]3(C)[C@@H](C5=CC(=O)OC5)CC[C@]43O)C2)CC[C@@H]1O[C@@H]1CC[C@H](O)[C@@H](C)O1 ? 790

# credit: ChEMBL document CHEMBL3259699
